Tested on: experimental hepatopathy models prepared by D-galactosamine administration
measurement.notes: Inhibitory action on hepatopathy in hepatopathy models by D-galactosamine (serum GPT and GOT)
Format: in vivo, Wistar strain male mice
measurement.context: iv, 24 h; lipid emulsion, i.v., dose 30 μg/kg, 2 hours after D-galactosamine; read-out: GPT inhibition
Structures can show the parent of a compound that is named as a salt.
Answer Not met if inhibition in vivo at 0.03 mg/kg is under 50%, and Met if it is 50% or more.

1) COc1c(C)c(CNC/C=C(\C)CC/C=C(\C)CC/C=C(\C)CC/C=C(\C)CC/C=C(\C)CC/C=C(\C)CC/C=C(\C)CC/C=C(\C)CCC=C(C)C)c(OC)c(OC)c1OC [Compound 14, hydrochloride] :: Met
2) COc1cc(CNC/C=C(\C)CC/C=C(\C)CC/C=C(\C)CC/C=C(\C)CC/C=C(\C)CC/C=C(\C)CC/C=C(\C)CC/C=C(\C)CCC=C(C)C)ccc1O [Compound 12, hydrochloride] :: Met
3) CC(C)=CCC/C(C)=C/CC/C(C)=C/CC/C(C)=C/CC/C(C)=C/CC/C(C)=C/CC/C(C)=C/CC/C(C)=C/CC/C(C)=C/CNCc1ccc(O)c(O)c1 [Compound 11, hydrochloride] :: Met
4) CC(C)=CCC/C(C)=C/CC/C(C)=C/CC/C(C)=C/CC/C(C)=C/CC/C(C)=C/CC/C(C)=C/CC/C(C)=C/CC/C(C)=C/CNCc1cccs1 [Compound 25, N-solanesyl-2-thienylamine hydrochloride] :: Not met
5) CC(C)=CCC/C(C)=C/CC/C(C)=C/CC/C(C)=C/CC/C(C)=C/CC/C(C)=C/CC/C(C)=C/CC/C(C)=C/CC/C(C)=C/CNCc1ccc(C)cc1 [Compound 10, hydrochloride] :: Met
